- Species on record: Homo sapiens
- method description: Selectivity index, ratio of IC50 for recombinant GST-His-tagged Keap1-DC domain (321 to 609 residues) (unknown origin) expressed in Escherichia coli/FAM-labeled Nrf2 (unknown origin) interaction to IC50 for recombinant GST-His-tagged Keap1-DC domain (321 to 609 residues) (unknown origin) expressed in Escherichia coli/FAM-labeled phosphorylated p62 (unknown origin) interaction

{"columns": ["entry smiles", "Ratio IC50"],
 "data": [
  ["CCOc1ccc(S(=O)(=O)Nc2cc(SCC(=O)O)c(NS(=O)(=O)c3ccc(OCC)cc3)c3ccccc23)cc1", 1.1],
  ["CCOc1ccc(S(=O)(=O)Nc2cc(CC(=O)O)c(NS(=O)(=O)c3ccc(OCC)cc3)c3ccccc23)cc1", 1.4],
  ["COc1ccc(S(=O)(=O)Nc2cc(CC(C)=O)c(NS(=O)(=O)c3ccc(OC)cc3)c3ccccc23)cc1", 1.3],
  ["CCOc1ccc(S(=O)(=O)Nc2cc(SCC(=O)OC)c(NS(=O)(=O)c3ccc(OCC)cc3)c3ccccc23)cc1", 1.9],
  ["CCOc1ccc(S(=O)(=O)Nc2cc(CCC(=O)O)c(NS(=O)(=O)c3ccc(OCC)cc3)c3ccccc23)cc1", 1.2],
  ["CCOc1ccc(S(=O)(=O)Nc2cc(Sc3nc[nH]n3)c(NS(=O)(=O)c3ccc(OCC)cc3)c3ccccc23)cc1", 1.3],
  ["CCOc1ccc(S(=O)(=O)Nc2ccc(NS(=O)(=O)c3ccc(OCC)cc3)c3ccccc23)cc1", 2],
  ["CCOc1ccc(S(=O)(=O)Nc2cc(CCCC(=O)O)c(NS(=O)(=O)c3ccc(OCC)cc3)c3ccccc23)cc1", 1],
  ["CCOc1ccc(S(=O)(=O)Nc2cc(CC(C)=O)c(NS(=O)(=O)c3ccc(OCC)cc3)c3ccccc23)cc1", 4.1]
]}
